Molecular target: Serine/threonine-protein kinase Nek11 (Homo sapiens)
Conditions: at 1 µM
# if value of residual activity reaches 70%, tag true (1); if it stays below, tag false (0)

Is the recorded value of residual activity equal to or greater than 70% for this compound? COc1ccc(COc2ccc(Cc3cnc(N)nc3N)cc2OC)cc1 true (1)

Is the recorded value of residual activity equal to or greater than 70% for this compound? CCCCc1c(-c2ccc(OC)cc2)[nH]c2nccnc12 true (1)

Is the recorded value of residual activity equal to or greater than 70% for this compound? O=C1NC(=O)c2c1c1c3ccccc3[nH]c1n1cncc21 false (0)

Is the recorded value of residual activity equal to or greater than 70% for this compound? O=C(O)/C=C/c1cc(Br)c(Br)c(Br)c1Br true (1)

Is the recorded value of residual activity equal to or greater than 70% for this compound? COc1ccc2c(c1)c(C1=C(c3c[nH]c4ccccc34)C(=O)NC1=O)cn2CCCN(C)C false (0)

Is the recorded value of residual activity equal to or greater than 70% for this compound? Oc1cccc(-c2nc(N3CCOCC3)c3oc4ncccc4c3n2)c1 true (1)

Is the recorded value of residual activity equal to or greater than 70% for this compound? O=C(CCCc1ccc(-c2ccccc2F)cc1)Nc1ccc(O)cc1 false (0)

Is the recorded value of residual activity equal to or greater than 70% for this compound? CC(C)c1nn(-c2c(Cl)cccc2Cl)c2nc(Cc3ccc(OCCO)cc3)[nH]c(=O)c12 false (0)

Is the recorded value of residual activity equal to or greater than 70% for this compound? CCCC(=O)Oc1ccc2[nH]c(C(=O)c3cc4ccccc4[nH]3)cc2c1 true (1)

Is the recorded value of residual activity equal to or greater than 70% for this compound? COc1ccc(Cl)cc1NC(=O)Nc1cc(C)nc2ccccc12 true (1)

Is the recorded value of residual activity equal to or greater than 70% for this compound? O=c1cc(N2CCNCC2)oc2c(-c3ccccc3)cccc12 true (1)
